Cited source: patent US20240360228A1

Reported MFI values for the following binders.
testedSystem: T1, human CCR8 (human, UniProt P51685 1-355)
T1 construct: Native CCR8 on human PBMC (CCR8+ CD3+ or CCR8+ CD4+ lymphocytes); also called chemokine (C-C motif) receptor 8
T1 sequence (P51685 whole entry): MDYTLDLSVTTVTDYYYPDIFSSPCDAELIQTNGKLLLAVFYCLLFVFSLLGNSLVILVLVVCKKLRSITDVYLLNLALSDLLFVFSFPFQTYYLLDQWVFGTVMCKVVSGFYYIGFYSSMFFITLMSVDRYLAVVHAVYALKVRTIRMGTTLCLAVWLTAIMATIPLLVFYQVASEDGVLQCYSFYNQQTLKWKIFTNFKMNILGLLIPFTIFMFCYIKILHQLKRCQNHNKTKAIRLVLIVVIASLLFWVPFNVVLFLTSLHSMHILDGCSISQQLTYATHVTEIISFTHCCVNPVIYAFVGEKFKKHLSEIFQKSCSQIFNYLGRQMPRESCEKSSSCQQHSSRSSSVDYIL
experimentalDetails: flow blocking, PBMC CCR8+CD3+; competitor PE-AB11
Enter the number alone.

Here's what some known entries look like.
- binder: "AB11 (antibody, V domains shown, Hybridoma monoclonal; also called antibody 11; clone 11) VH: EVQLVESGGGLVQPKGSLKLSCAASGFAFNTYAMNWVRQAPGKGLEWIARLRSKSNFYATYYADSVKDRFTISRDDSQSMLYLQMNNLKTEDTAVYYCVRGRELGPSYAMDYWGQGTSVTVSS VL: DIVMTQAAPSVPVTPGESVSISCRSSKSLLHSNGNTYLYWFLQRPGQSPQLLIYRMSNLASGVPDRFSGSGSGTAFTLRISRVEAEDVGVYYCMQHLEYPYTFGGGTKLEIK"
  MFI: 532
- binder: "AB6 (antibody, V domains shown, Hybridoma monoclonal; Same VH/VL entries as AB5; also called antibody 6; clone 6) VH: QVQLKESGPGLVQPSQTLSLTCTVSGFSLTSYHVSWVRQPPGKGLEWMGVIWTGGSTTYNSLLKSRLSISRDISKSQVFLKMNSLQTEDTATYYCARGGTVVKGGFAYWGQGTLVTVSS VL: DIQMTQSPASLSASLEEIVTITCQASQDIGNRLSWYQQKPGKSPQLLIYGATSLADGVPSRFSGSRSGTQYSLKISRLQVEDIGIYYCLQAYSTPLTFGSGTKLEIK"
  MFI: 1100
- binder: "AB10 (antibody, V domains shown, Hybridoma monoclonal; also called antibody 10; clone 10) VH: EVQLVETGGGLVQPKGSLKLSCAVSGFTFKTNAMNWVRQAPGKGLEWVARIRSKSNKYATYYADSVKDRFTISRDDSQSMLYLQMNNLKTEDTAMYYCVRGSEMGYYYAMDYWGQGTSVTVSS VL: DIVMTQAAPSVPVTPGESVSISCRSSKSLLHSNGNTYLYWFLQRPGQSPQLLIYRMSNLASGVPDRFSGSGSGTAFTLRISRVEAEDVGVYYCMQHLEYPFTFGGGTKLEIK"
  MFI: 416
- binder: "AB5 (antibody, V domains shown, Hybridoma monoclonal; Same VH/VL entries as AB6; also called antibody 5; clone 5) VH: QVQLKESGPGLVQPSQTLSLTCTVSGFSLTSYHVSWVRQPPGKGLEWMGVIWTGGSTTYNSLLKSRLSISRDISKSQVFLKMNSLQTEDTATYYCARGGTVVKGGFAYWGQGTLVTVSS VL: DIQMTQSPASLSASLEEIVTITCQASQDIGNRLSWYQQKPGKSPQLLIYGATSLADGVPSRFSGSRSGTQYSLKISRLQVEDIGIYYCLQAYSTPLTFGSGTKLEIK"
  MFI: 1020
- binder: "AB13 (antibody, V domains shown, Hybridoma monoclonal; also called antibody 13; clone 13) VH: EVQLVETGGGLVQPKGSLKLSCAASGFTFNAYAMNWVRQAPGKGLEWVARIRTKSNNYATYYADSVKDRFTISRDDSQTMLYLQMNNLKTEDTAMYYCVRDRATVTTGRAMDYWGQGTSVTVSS VL: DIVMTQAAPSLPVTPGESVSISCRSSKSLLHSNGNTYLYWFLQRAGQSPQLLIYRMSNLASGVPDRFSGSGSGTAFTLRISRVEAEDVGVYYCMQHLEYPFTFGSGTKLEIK"
  MFI: 878

Dear colleague, please send me the reported MFI for AB7 (antibody, V domains shown, Hybridoma monoclonal; also called antibody 7; clone 7) VH: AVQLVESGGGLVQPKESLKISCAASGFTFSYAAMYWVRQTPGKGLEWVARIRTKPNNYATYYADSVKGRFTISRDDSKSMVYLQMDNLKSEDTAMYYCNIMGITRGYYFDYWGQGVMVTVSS VL: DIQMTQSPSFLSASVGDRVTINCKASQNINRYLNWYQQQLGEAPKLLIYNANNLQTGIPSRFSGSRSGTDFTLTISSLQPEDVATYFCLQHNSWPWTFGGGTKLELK when you can.
434

Dear colleague, please send me the reported MFI for AB8 (antibody, V domains shown, Hybridoma monoclonal; also called antibody 8; clone 8) VH: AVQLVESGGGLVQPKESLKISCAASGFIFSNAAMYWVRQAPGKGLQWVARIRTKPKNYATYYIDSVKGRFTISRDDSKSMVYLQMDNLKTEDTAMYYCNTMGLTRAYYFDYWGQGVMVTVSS VL: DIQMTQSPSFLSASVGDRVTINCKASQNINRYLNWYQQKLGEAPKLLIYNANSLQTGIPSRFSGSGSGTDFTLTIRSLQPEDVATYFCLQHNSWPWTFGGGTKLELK when you can.
502
